Cited source: patent US20100036088A1

Overview of reported HD10 across a group of compounds:
tested on: human erythrocytes; assay: Hemolysis assay; type: cell-based
Square brackets hold non-standard residues; d marks the D form. Peptide text beside a SMILES is read from it. Nspe = C[C@H](NCC(=O)O)c1ccccc1; NPentylGly = CCCCCNCC(=O)O; Nlys = NCCCCNCC(=O)O
A number alone suffices; assume µM.

{"columns": ["compound", "uom", "HD10"],
 "data": [
  ["CCCCCNCC(=O)N(CCCCN)CC(=O)N(CC(=O)N(CC(=O)N(CCCCN)CC(=O)N(CC(=O)N(CC(=O)N(CCCCN)CC(=O)N(CC(=O)N(CC(=O)N(CCCCN)CC(=O)N(CC(=O)N(CC(N)=O)[C@@H](C)c1ccccc1)[C@@H](C)c1ccccc1)[C@@H](C)c1ccccc1)[C@@H](C)c1ccccc1)[C@@H](C)c1ccccc1)[C@@H](C)c1ccccc1)[C@@H](C)c1ccccc1)[C@@H](C)c1ccccc1 [C5-1] (H-[NPentylGly][Nlys][Nspe][Nspe][Nlys][Nspe][Nspe][Nlys][Nspe][Nspe][Nlys][Nspe][Nspe]-NH2)", "µM", 10]
]}

Next, consider the following compound.
Problem: GET /values?readout=HD10&item= C[C@@H](c1ccccc1)N(CC(N)=O)C(=O)CN(CCCCN)C(=O)CN(C(=O)CN(C(=O)CN(CCCCN)C(=O)CN(C(=O)CN(C(=O)CN(CCCCN)C(=O)CN(C(=O)CN(C(=O)CNCCCCN)[C@@H](C)c1ccccc1)[C@@H](C)c1ccccc1)[C@@H](C)c1ccccc1)[C@@H](C)c1ccccc1)[C@@H](C)c1ccccc1)[C@@H](C)c1ccccc1 [111mer, H-(Nlys-Nspe-Nspe)3-Nlys-Nspe-NH2] (H-[Nlys][Nspe][Nspe][Nlys][Nspe][Nspe][Nlys][Nspe][Nspe][Nlys][Nspe]-NH2)
Solution: 103

----------
test: MTS assay, metabolic inhibition; type: cell-based, mouse
Numbered stars: 1 amine (or outer) side, 2 acyl side, 3 side chain; on linkers, the order of the positions; unused ones are H or OH. Square brackets hold non-standard residues; d marks the D form. Peptide text beside a SMILES is read from it. X1 = CC(C)[C@H](C)N(CC(=O)[*:2])[*:1]; Nspe = C[C@H](NCC(=O)O)c1ccccc1; Nphe = O=C(O)CNCc1ccccc1; Nlys = NCCCCNCC(=O)O
assay_endpoint: IC50 (µM)
A number alone suffices; assume µM.

Problem: GET /values?readout=IC50&item= C[C@@H](c1ccccc1)N(CC(N)=O)C(=O)CN(Cc1ccccc1)C(=O)CN(CCCCN)C(=O)CN(C(=O)CN(Cc1ccccc1)C(=O)CN(CCCCN)C(=O)CN(C(=O)CN(Cc1ccccc1)C(=O)CN(CCCCN)C(=O)CN(C(=O)CN(Cc1ccccc1)C(=O)CNCCCCN)[C@@H](C)c1ccccc1)[C@@H](C)c1ccccc1)[C@@H](C)c1ccccc1 [1-Npm2,5,8,11, H-(Nlys-Npm-Nspe)4-NH2] (H-[Nlys][Nphe][Nspe][Nlys][Nphe][Nspe][Nlys][Nphe][Nspe][Nlys][Nphe][Nspe]-NH2)
Solution: 6.8

Problem: GET /values?readout=IC50&item= CC(C)[C@H](C)N(CC(=O)N(CC(=O)N(CCCCN)CC(=O)N(CC(=O)N(CC(=O)N(CCCCN)CC(=O)N(CC(=O)N(CC(=O)N(CCCCN)CC(=O)N(CC(=O)N(CC(N)=O)[C@@H](C)c1ccccc1)[C@@H](C)C(C)C)[C@@H](C)c1ccccc1)[C@@H](C)C(C)C)[C@@H](C)c1ccccc1)[C@@H](C)C(C)C)[C@@H](C)c1ccccc1)C(=O)CNCCCCN [1-Nsdp2,5,8,11, H-(Nlys-Nsdp-Nspe)4-NH2] (H-[Nlys][X1][Nspe][Nlys][X1][Nspe][Nlys][X1][Nspe][Nlys][X1][Nspe]-NH2)
Solution: 20

Problem: GET /values?readout=IC50&item= NCCCCNCC(=O)N(CC(=O)N(CC(=O)N(CCCCN)CC(=O)N(CC(=O)N(CC(=O)N(CCCCN)CC(=O)N(CC(=O)N(CC(=O)N(CCCCN)CC(=O)N(CC(=O)N(CC(N)=O)Cc1ccccc1)Cc1ccccc1)Cc1ccccc1)Cc1ccccc1)Cc1ccccc1)Cc1ccccc1)Cc1ccccc1)Cc1ccccc1 [1achiral, H-(Nlys-Npm-Npm)4-NH2] (H-[Nlys][Nphe][Nphe][Nlys][Nphe][Nphe][Nlys][Nphe][Nphe][Nlys][Nphe][Nphe]-NH2)
Solution: 16

Problem: GET /values?readout=IC50&item= C[C@@H](c1ccccc1)N(CC(N)=O)C(=O)CN(C(=O)CN(CCCCN)C(=O)[C@@H]1CCCN1C(=O)CN(C(=O)CN(CCCCN)C(=O)CN(C(=O)CN(C(=O)CN(CCCCN)C(=O)CN(C(=O)CN(C(=O)CNCCCCN)[C@@H](C)c1ccccc1)[C@@H](C)c1ccccc1)[C@@H](C)c1ccccc1)[C@@H](C)c1ccccc1)[C@@H](C)c1ccccc1)[C@@H](C)c1ccccc1 [1-Pro9] (H-[Nlys][Nspe][Nspe][Nlys][Nspe][Nspe][Nlys][Nspe]P[Nlys][Nspe][Nspe]-NH2)
Solution: 24

Problem: GET /values?readout=IC50&item= C[C@@H](c1ccccc1)N(CC(N)=O)C(=O)CN(C(=O)CN(CCCCN)C(=O)[C@@H]1CCCN1C(=O)CN(C(=O)CN(CCCCN)C(=O)CN(C(=O)CN(C(=O)CN(CCCCN)C(=O)[C@@H]1CCCN1C(=O)CN(C(=O)CNCCCCN)[C@@H](C)c1ccccc1)[C@@H](C)c1ccccc1)[C@@H](C)c1ccccc1)[C@@H](C)c1ccccc1)[C@@H](C)c1ccccc1 [1-Pro3,9, H-(Nlys-Nspe-L-Pro-Nlys-Nspe-Nspe)2-NH2] (H-[Nlys][Nspe]P[Nlys][Nspe][Nspe][Nlys][Nspe]P[Nlys][Nspe][Nspe]-NH2)
Solution: 71

----------
Overview of reported HD10 across a group of molecules:
tested on: human erythrocytes; experiment: Hemolysis assay; assay type: cell-based
Square brackets hold non-standard residues; d marks the D form. Peptide text beside a SMILES is read from it. Nspe = C[C@H](NCC(=O)O)c1ccccc1; Nlys = NCCCCNCC(=O)O

Problem: GET /values?readout=HD10&item= C[C@@H](c1ccccc1)N(CC(N)=O)C(=O)CN(C(=O)CN(CCCCN)C(=O)[C@@H]1CCCN1C(=O)CN(C(=O)CN(CCCCN)C(=O)CN(C(=O)CN(C(=O)CN(CCCCN)C(=O)[C@@H]1CCCN1C(=O)CN(C(=O)CNCCCCN)[C@@H](C)c1ccccc1)[C@@H](C)c1ccccc1)[C@@H](C)c1ccccc1)[C@@H](C)c1ccccc1)[C@@H](C)c1ccccc1 [1-Pro3,9, H-(Nlys-Nspe-L-Pro-Nlys-Nspe-Nspe)2-NH2] (H-[Nlys][Nspe]P[Nlys][Nspe][Nspe][Nlys][Nspe]P[Nlys][Nspe][Nspe]-NH2)
Solution: >200/>200 μM

Problem: GET /values?readout=HD10&item= C[C@@H](c1ccccc1)N(CC(N)=O)C(=O)CN(CCCCN)C(=O)CN(CCCCN)C(=O)CN(C(=O)CN(C(=O)CN(CCCCN)C(=O)CN(C(=O)CN(CCCCN)C(=O)CN(CCCCN)C(=O)CN(C(=O)CN(C(=O)CNCCCCN)[C@@H](C)c1ccccc1)[C@@H](C)c1ccccc1)[C@@H](C)c1ccccc1)[C@@H](C)c1ccccc1)[C@@H](C)c1ccccc1 [1-Nlys5,11, H-(Nlys-Nspe-Nspe-Nlys-Nlys-Nspe)2-NH2] (H-[Nlys][Nspe][Nspe][Nlys][Nlys][Nspe][Nlys][Nspe][Nspe][Nlys][Nlys][Nspe]-NH2)
Solution: >100/>100 μM

Problem: GET /values?readout=HD10&item= C[C@@H](c1ccccc1)N(CC(N)=O)C(=O)CN(C(=O)CN(CCCCN)C(=O)CN(C(=O)CN(C(=O)CNCCCCN)[C@@H](C)c1ccccc1)[C@@H](C)c1ccccc1)[C@@H](C)c1ccccc1 [16 mer, H-(Nlys-Nspe-Nspe)2-NH2] (H-[Nlys][Nspe][Nspe][Nlys][Nspe][Nspe]-NH2)
Solution: >220/>220 μM

----------
system: human erythrocytes; test: Hemolysis assay; type: cell-based
Square brackets hold non-standard residues; d marks the D form. Peptide text beside a SMILES is read from it. Gly(N-CH2CH2-imidazol-4-yl) = O=C(O)CNCCc1c[nH]cn1; Nspe = C[C@H](NCC(=O)O)c1ccccc1; NDecylGly = CCCCCCCCCCNCC(=O)O; Nlys = NCCCCNCC(=O)O
Overview of reported HD10 across a group of compounds:

Consider the reported HD10 for these compounds:
{"columns": ["compound", "study_target", "HD10"],
 "data": [
  ["C[C@H](NCC(=O)N(CCCCN)CC(=O)N(CC(=O)N(CCCCN)CC(=O)N(CCCCN)CC(=O)N(CC(=O)N(CC(=O)N(CCCCN)CC(=O)N(CC(=O)N(CCCCN)CC(=O)N(CCCCN)CC(=O)N(CC(N)=O)[C@@H](C)c1ccccc1)[C@@H](C)c1ccccc1)[C@@H](C)c1ccccc1)[C@@H](C)c1ccccc1)[C@@H](C)c1ccccc1)c1ccccc1 [1B-Nlys4,10, H-(Nspe-Nlys-Nspe-Nlys-Nlys-Nspe)2-NH2] (H-[Nspe][Nlys][Nspe][Nlys][Nlys][Nspe][Nspe][Nlys][Nspe][Nlys][Nlys][Nspe]-NH2)", "human erythrocytes", ">200/>200 μM"],
  ["C[C@@H](c1ccccc1)N(CC(=O)N(CCc1cnc[nH]1)CC(=O)N(CCCCN)CC(=O)N(CC(=O)N(CC(=O)N(CCCCN)CC(=O)N(CC(=O)N(CCc1cnc[nH]1)CC(N)=O)[C@@H](C)c1ccccc1)[C@@H](C)c1ccccc1)[C@@H](C)c1ccccc1)C(=O)CN(CCCCN)C(=O)CN(C(=O)CN(C(=O)CNCCCCN)[C@@H](C)c1ccccc1)[C@@H](C)c1ccccc1 [1-Nhis6,12] (H-[Nlys][Nspe][Nspe][Nlys][Nspe][Gly(N-CH2CH2-imidazol-4-yl)][Nlys][Nspe][Nspe][Nlys][Nspe][Gly(N-CH2CH2-imidazol-4-yl)]-NH2)", "human erythrocytes", ">110/>110 μM"]
]}

Next, consider the following compound.
Problem: GET /values?readout=HD10&item= CCCCCCCCCCNCC(=O)N(CCCCN)CC(=O)N(CC(=O)N(CC(=O)N(CCCCN)CC(N)=O)[C@@H](C)c1ccccc1)[C@@H](C)c1ccccc1 [C10-14 mer] (H-[NDecylGly][Nlys][Nspe][Nspe][Nlys]-NH2)
Solution: >200/>200 μM
